Test: MTT cytotoxicity assay, HeLa cells
Type: cell-based
Details: human, mean ± SD (n = 3)
Measured IC50 at 72 h values are reported for all entries that follow.
Number in µM, nothing else.

compound	units-of-measure	quantitative-result
CC1(C)CC[C@]2(C(=O)O)CC[C@]3(C)C(=CCC4[C@@]5(C)C[C@@H](O)[C@H](O)[C@@](C)(C=O)C5CC[C@]43C)C2C1 (stereo partly drawn) [Compound 5]	µM	22.7

Input line: Endpoint output: IC50 at 72 h of CC1(C)CC[C@]2(C(=O)O)CC[C@]3(C)C(=CC[C@@H]4[C@@]5(C)C[C@@H](O)[C@H](O)[C@@](C)(CO)[C@@H]5CC[C@]43C)[C@@H]2C1 [Compound 7, arjunolic acid] . Value?
Output line: 24.4
